Data credit: patent US8486996B2

- Tested on: H460
- test-description: Colony Forming Units (read-out 6 days), H460
- Format: cell-based, human
- condition-parameters: colonies containing more than 30 cells, read-out: Colony Forming Units, score based on IC50, H460
Consider the following compounds; for each one, report its IC50.

IC50 recorded for this compound, CCOc1ccc(F)cc1C(=O)c1cc2cc(O)ccc2o1 [Example 64] , is 0.01 to 0.1 µM

The compound listed as COc1ccc2oc(C(=O)c3cc(F)ccc3N3CC=CCC3)cc2c1 [Example 98] shows IC50 equal to 0.01 to 0.1 µM

Sure, the documented IC50 for Nc1c(C(=O)c2cccnc2N2CCCCC2)oc2ccc(Cl)cc12 [Example 82] is 0.01 to 0.1 µM

Reported IC50 of CCOc1ccc2oc(C(=O)c3cc(F)ccc3OCC)cc2c1 [Example 66] : < 0.01 µM

Sample Nc1c(C(=O)c2ccccc2OCC(F)(F)F)oc2ccc(Cl)cc12 [Example 61] ; IC50 observed: 0.01 to 0.1 µM

The value of IC50 measured for the compound CCN(C)c1ncccc1C(=O)c1oc2ccc(Cl)cc2c1N [Example 80] turned out to be 0.1 to 1 µM

Per the record, CCOc1ccccc1C(=O)c1cc2cc(OC)ccc2o1 [Example 53] has IC50 of 0.01 to 0.1 µM

Kindly note the recorded IC50 for CCOc1ccc(F)cc1C(=O)c1oc2ccc(OC)cc2c1N [Example 48] , which is < 0.01 µM

Please fill in: IC50 reported for COc1ccc2oc(C(=O)c3cc(F)ccc3N3CCCCC3)cc2c1 [Example 96] = 0.01 to 0.1 µM

Given item C#CCOc1ccc(OC)cc1C(=O)c1oc2ccc(Cl)cc2c1N [Example 13] , the value recorded as its IC50 is 0.1 to 1 µM

Recorded IC50 (compound CCOc1ccc(F)cc1C(=O)c1oc2ccc(OC)cc2c1NC(=O)COC [Example 58] ): 0.01 to 0.1 µM

Measured IC50 of C#CCOc1ccccc1C(=O)c1oc2ccc(Cl)cc2c1N [Example 8] : 0.1 to 1 µM

GET /value?item= COCCOc1ccccc1C(=O)c1oc2ccc(Cl)cc2c1N [Example 6] &field=IC50 returns 0.1 to 1 µM

CCOc1ccc(F)cc1C(=O)c1oc2ccc(O)cc2c1N [Example 75] has a reported IC50 of 0.01 to 0.1 µM

CCOc1ncccc1C(=O)c1oc2ccc(Cl)cc2c1N [Example 78] yielded IC50 of 0.01 to 0.1 µM

---

- Test system: tumor cells
- test-description: Mitochondrial membrane potential, JC-1 (read-out 48 h)
- Assay type: cell-based
- condition-parameters: Jily cells, JC-1, 48 h; read-out: Mitochondrial membrane potential (read-out 48 h) Jily
- Procedure: D) Mitochondrial Membrane Potential This assay is performed in 96 well tissue culture plates. Appropriate number of cells (adherent cells: 3-5*10^3, suspension cells: 8-10*10^3) are being seeded out in 80 μl complete medium. […] The assay plates are then further incubated for 30 minutes and subsequently analyzed with a standard inverted fluorescence microscope by using the FITC and TRITC filters. […]
pEC50: −log10 of the molar value.
Kindly supply the reported pEC50 values for the records listed here.

Response field pEC50 (tumor cells) for item CC1CCCN(c2ccc(F)cc2C(=O)c2oc3ccc(Cl)cc3c2N)C1 (stereo not shown) [Example 104] : 6.00 to 7.00

Form: item C#CCOc1ccccc1C(=O)c1oc2ccc(Cl)cc2c1N [Example 8] ; test system tumor cells; pEC50: 6.00 to 7.00

Log: tumor cells, molecule CCOc1ccc(F)cc1C(=O)c1sc2ncc(N)cc2c1N [Example 116] , pEC50 = 7.00 to 8.00

The recorded pEC50 with tumor cells for CCOc1ccc(Cl)cc1C(=O)c1oc2ccc(Cl)cc2c1N [Example 17] was 7.00 to 8.00

Param item: CN1CCN(c2ncccc2C(=O)c2oc3ccc(Cl)cc3c2N)CC1 [Example 85] ; param system: tumor cells; output pEC50: 6.00 to 7.00

Recorded pEC50 for CCOc1ccc2oc(C(=O)c3cc(F)ccc3N3CCOCC3)cc2c1 [Example 108] on tumor cells was 7.00 to 8.00

# COc1ccc2oc(C(=O)c3cc(F)ccc3N3CCOCC3)cc2c1 [Example 38] with tumor cells: pEC50 is 7.00 to 8.00

Case O=C(c1cc2cc(O)ccc2o1)c1cc(F)ccc1N1CC=CCC1 [Example 112] , tumor cells, pEC50 recorded as 7.00 to 8.00

Fill in: tumor cells pEC50 for CCOc1ccc(F)cc1C(=O)c1oc2nc(C)ccc2c1N [Example 29] = 7.00 to 8.00

The reported tumor cells pEC50 of COc1ccc2oc(C(=O)c3cccnc3N3CCOCC3)cc2c1 [Example 39] is 7.00 to 8.00

---

- System: tumor cells
- test-description: Mitochondrial membrane potential, JC-1 (read-out 48 h)
- Type: cell-based
- condition-parameters: Jily cells, JC-1, 48 h; read-out: Mitochondrial membrane potential (read-out 48 h) Jily
Record form. Attribute: EC50. Fill in for each entry.

EC50 reading for `CCOc1ccc(F)cc1C(=O)c1sc2ncccc2c1N` : 100 to 1000 nM

`CCOc1cc(OC)c(Br)cc1C(=O)c1oc2ccc(Cl)cc2c1N` has a reported EC50 of > 1000 nM

Sample `Cc1cc2c(N)c(C(=O)c3ccccc3N3CC=CCC3)sc2nc1C` ; EC50 observed: 10 to 100 nM

// sample `COc1ccc2oc(C(=O)c3cccnc3-n3ccnc3)cc2c1` , its EC50 was > 1000 nM

compound `CCOc1ccc(F)cc1C(=O)c1sc2nc(C)c(C)cc2c1N` , EC50 observed: 10 to 100 nM

response.value for `CCOc1ccc(F)cc1C(=O)c1cc2cc(COC)ccc2o1` (field: EC50) = 10 to 100 nM

Measured EC50 of `CC(C)Oc1ccccc1C(=O)c1oc2ccc(Cl)cc2c1N` : 100 to 1000 nM

In plain terms, `CCOc1ccccc1C(=O)c1cc2cc(OC)ccc2o1` has a documented EC50 of 10 to 100 nM

Notebook: `CCOc1ccc(-n2cccc2)cc1C(=O)c1oc2ccc(Cl)cc2c1N` , EC50 read as 100 to 1000 nM

Sure, the documented EC50 for `CCOc1ccccc1C(=O)c1oc2ccc(OC)cc2c1N` is 10 to 100 nM

In plain terms, `Nc1c(C(=O)c2cc(F)ccc2N2CC=CCC2)oc2ccc(Cl)cc12` has a documented EC50 of 10 to 100 nM

The measured EC50 associated with `Cc1cc2c(N)c(C(=O)c3cc(F)ccc3N3CCOCC3)sc2nc1C` reads 100 to 1000 nM

Field EC50 (entry `O=C(c1cc2cc(OCc3ccccc3)ccc2o1)c1cc(F)ccc1N1CCCCC1` ) reads > 1000 nM

Measured EC50, CC1CN(c2ncccc2C(=O)c2oc3ccc(Cl)cc3c2N)CC(C)O1 (stereo not shown) : 100 to 1000 nM

Looking up `O=C(c1cc2cc(OCc3ccccc3)ccc2o1)c1cc(F)ccc1N1CCOCC1` , I found its EC50 recorded as > 1000 nM

Record summary for `COc1ccc2oc(C(=O)c3ccccc3OCC(F)(F)F)c(N)c2c1` : reported EC50 = 10 to 100 nM

Recorded EC50 (compound `CCOc1ccc(OCC)c(C(=O)c2oc3ccc(Cl)cc3c2N)c1` ): 100 to 1000 nM

Note to self: EC50 recorded for `CCOc1ccc(C(=O)O)cc1C(=O)c1oc2ccc(Cl)cc2c1N` was > 1000 nM

Record summary for COc1ccc2oc(C(=O)c3cccnc3N3CCCCC3C)cc2c1 (stereo not shown) : reported EC50 = 100 to 1000 nM

---

Answer each item with its documented pIC50.
- System: tumor cells
- test-description: MTS proliferation assay (72 h read-out)
- Assay type: cell-based
- condition-parameters: HT1080 cells, read-out: MTS proliferation assay IC50, HT1080
pIC50: −log10 of the molar value.

compound `Nc1cnc2sc(C(=O)c3ccccc3N3CCOCC3)c(N)c2c1` , pIC50 observed: < 6.00

pIC50 for `CCOc1ccccc1C(=O)c1oc2ccccc2c1N` is 6.00 to 7.00

Measured pIC50 of `CCOc1ccccc1C(=O)c1oc2ccc(N)cc2c1N` : < 6.00

GET /value?item= `CCOc1ccc(F)cc1C(=O)c1cc2cc(OC(C)C)ccc2o1` &field=pIC50 returns 7.00 to 8.00

Lab book: pIC50 of COc1ccc2oc(C(=O)c3cccnc3N3CCCC(C)C3)cc2c1 (centres unmarked) noted as 7.00 to 8.00

For this compound ( `CCOc1ccc(F)cc1C(=O)c1oc2ccc(OC)cc2c1NC(=O)COC` ), measured pIC50 is 7.00 to 8.00

// recorded pIC50 for `CCOc1ccccc1C(=O)c1oc2ccc(OC)cc2c1N` : > 8.00

Data point: `CCOc1ccc(F)cc1C(=O)c1cc2cc(Oc3ccccn3)ccc2o1` ; pIC50 = 6.00 to 7.00

# pIC50 (compound: `CCN(CC)c1ncccc1C(=O)c1oc2ccc(Cl)cc2c1N` ) is 7.00 to 8.00

The reported pIC50 of the compound `O=C(c1cc2cc(OCc3ccccc3)ccc2o1)c1cc(F)ccc1N1CCOCC1` was < 6.00

In plain terms, `Nc1c(C(=O)c2cc(F)ccc2N2CC=CCC2)oc2ccc(Cl)cc12` has a documented pIC50 of 7.00 to 8.00
